Assay: in vivo
Settings: female, NMRI-nu/nu (Rj:NMRI-Foxn1nu/nu), mouse, iv, total radioactivity
ASSAY_READOUT: SUV at 72 h (SUV)
Write the value in SUV as a bare number.

Q. Supply measured SUV at 72 h of Cc1cc(-c2ccc(NC(=O)[C@H](CCCCNC(=O)CCN3C(=O)CC(SCCC(=O)N[C@H](Cc4ccccc4)C(=O)N[C@H]4CSSC[C@@H](C(=O)N[C@H](C(=O)O)[C@@H](C)O)NC(=O)[C@H]([C@@H](C)O)NC(=O)[C@H](CCCCN)NC(=O)[C@@H](Cc5c[nH]c6ccccc56)NC(=O)[C@H](Cc5ccc(O)cc5)NC4=O)C3=O)NC(=O)CN3CCN(CC(=O)O)CCN(CC(=O)O)CCN(CC(=O)O)CC3)c(C)c2)ccc1/N=N/c1ccc2c(S(=O)(=O)O)cc(S(=O)(=O)O)c(N)c2c1O (stereo partly shown) [[64Cu]Cu-DOTA-EB-TATE, metal not drawn] in your reply.
A. 5.6

Source listed as paper PMC12169663.
